Exercise: state measured Bound for each of the binders provided.
Biological target: 14C-HIgG (human)
Assay: second round of secondary screening, batch, competitive (MEM), 14C counting
No end group written: not given here.
Value expressed in %; do not type the unit.

q: Given the binder HWIDPLA-{Toyopearl AF‑Amino‑650 resin} , what is its reported Bound?
a: 19.9

q: Given the binder HIQLDGA-{Toyopearl AF‑Amino‑650 resin} , what is its reported Bound?
a: 10

q: Given the binder HWGPTKA-{Toyopearl AF‑Amino‑650 resin} , what is its reported Bound?
a: 19.9
